- System Name: HLA-A*0201 (Homo sapiens, UniProt P04439, D140Y/D185E/D98H/E176V/E277Q/G131W/G231S/I119V/I121R/I166T/I218V/L300P/L318F/N151K/N90K/P208A/P217A/Q86G/Q94H/R138H/R169H/T345S)
- Test Details: HLA class I binding assay, purified HLA, inhibition of 125I-labelled probe peptide
- Test Context: A*[…], A2 supermotif cross-reactive binding data
pIC50: −log10 of the molar value.

>  <Substance>
H-SLHLLSNDMCV-OH [Peptide 1418.66]

>  <pIC50>
8.07

$$$$
>  <Substance>
H-LLSNDMCARV-OH [Peptide 1418.53]

>  <pIC50>
8.28

$$$$

* * *

Listed here: items and their measured log10(IC50).
- System Name: HLA-A*0206 (Homo sapiens, UniProt P04439, D140Y/D185E/D98H/E176V/E277Q/F33Y/G131W/G231S/I119V/I121R/I166T/I218V/L300P/L318F/N151K/N90K/P208A/P217A/Q86G/Q94H/R138H/R169H/T345S)
- Test Details: HLA class I binding assay, purified HLA, inhibition of 125I-labelled probe peptide
- Test Context: A*[…], A2 supermotif cross-reactive binding data
Measured Endpoint: log10(IC50) (log10 of the value in nM)

>  <Molecule>
CC[C@H](C)[C@H](NC(=O)[C@H](CO)NC(=O)[C@@H](NC(=O)CN)C(C)C)C(=O)N[C@@H](Cc1c[nH]c2ccccc12)C(=O)N[C@@H](CC(N)=O)C(=O)N1CCC[C@H]1C(=O)N[C@H](C(=O)N[C@@H](CC(C)C)C(=O)N[C@H](C(=O)O)C(C)C)[C@@H](C)CC [Peptide 63.0041]

>  <Measured Endpoint>
log10(IC50)

>  <Assay Value>
2.65

$$$$
>  <Molecule>
CC(C)C[C@H](NC(=O)[C@H](CC(=O)O)NC(=O)CNC(=O)[C@H](CCC(=O)O)NC(=O)[C@@H]1CCCN1C(=O)[C@H](CC(C)C)NC(=O)CN)C(=O)N[C@H](C(=O)N[C@@H](Cc1ccc(O)cc1)C(=O)N[C@H](C(=O)O)C(C)C)C(C)C [Peptide 1389.22]

>  <Measured Endpoint>
log10(IC50)

>  <Assay Value>
2.05

$$$$
>  <Molecule>
CSCC[C@H](NC(=O)[C@@H](N)Cc1ccccc1)C(=O)N[C@@H](CC(C)C)C(=O)N[C@@H](CS)C(=O)N[C@@H](C)C(=O)NCC(=O)N[C@@H](CC(C)C)C(=O)N[C@@H](Cc1c[nH]c2ccccc12)C(=O)N[C@H](C(=O)O)C(C)C [Peptide 1418.22]

>  <Measured Endpoint>
log10(IC50)

>  <Assay Value>
1.71

$$$$
>  <Molecule>
CC(C)C[C@H](NC(=O)[C@H](Cc1ccccc1)NC(=O)[C@H](CC(C)C)NC(=O)[C@H](Cc1ccccc1)NC(=O)CNC(=O)[C@H](CC(C)C)NC(=O)[C@H](CO)NC(=O)[C@H](CC(C)C)NC(=O)[C@H](CO)NC(=O)[C@H](C)NC(=O)[C@H](C)N)C(=O)O [Peptide 63.0137]

>  <Measured Endpoint>
log10(IC50)

>  <Assay Value>
1.98

$$$$
>  <Molecule>
CC[C@H](C)[C@H](N)C(=O)N[C@H](C(=O)N[C@@H](CC(C)C)C(=O)N[C@@H](CO)C(=O)N[C@H](C(=O)NCC(=O)N[C@@H](CS)C(=O)N[C@H](C(=O)NCC(=O)N[C@@H](C)C(=O)N[C@H](C(=O)O)C(C)C)[C@@H](C)O)C(C)C)[C@@H](C)O [Peptide 1418.59]

>  <Measured Endpoint>
log10(IC50)

>  <Assay Value>
2.31

$$$$
>  <Molecule>
CSCC[C@H](NC(=O)[C@H](CC(=O)O)NC(=O)[C@H](CC(N)=O)NC(=O)[C@H](CO)NC(=O)[C@H](CC(C)C)NC(=O)[C@H](CC(C)C)NC(=O)[C@@H](N)Cc1c[nH]cn1)C(=O)N[C@@H](CS)C(=O)N[C@@H](C)C(=O)N[C@@H](CCCNC(=N)N)C(=O)N[C@@H](C)C(=O)O [Peptide 1419.15]

>  <Measured Endpoint>
log10(IC50)

>  <Assay Value>
2.57

$$$$
>  <Molecule>
CC(C)C[C@H](NC(=O)[C@H](CO)NC(=O)[C@@H](NC(=O)[C@H](CS)NC(=O)[C@H](CCC(N)=O)NC(=O)[C@H](CC(C)C)NC(=O)[C@@H](N)CO)C(C)C)C(=O)N[C@@H](Cc1c[nH]cn1)C(=O)N[C@@H](CC(C)C)C(=O)N[C@H](C(=O)O)C(C)C [Peptide 1418.52]

>  <Measured Endpoint>
log10(IC50)

>  <Assay Value>
0.72

$$$$
>  <Molecule>
CC(C)C[C@H](NC(=O)[C@H](CC(C)C)NC(=O)[C@H](Cc1c[nH]cn1)NC(=O)[C@H](CC(C)C)NC(=O)[C@H](CO)NC(=O)[C@@H](NC(=O)[C@H](CS)NC(=O)[C@H](CCC(N)=O)NC(=O)[C@H](CC(C)C)NC(=O)[C@@H](N)CO)C(C)C)C(=O)O [Peptide 1419.66]

>  <Measured Endpoint>
log10(IC50)

>  <Assay Value>
2.65

$$$$
>  <Molecule>
CC(C)C[C@H](NC(=O)[C@H](CC(=O)O)NC(=O)CNC(=O)[C@H](CCC(=O)O)NC(=O)[C@@H]1CCCN1C(=O)[C@@H](NC(=O)CN)[C@@H](C)O)C(=O)N[C@H](C(=O)N[C@@H](Cc1ccc(O)cc1)C(=O)N[C@H](C(=O)O)C(C)C)C(C)C [Peptide 1418.29]

>  <Measured Endpoint>
log10(IC50)

>  <Assay Value>
1.60

$$$$
>  <Molecule>
CC(C)C[C@H](NC(=O)[C@H](CO)NC(=O)[C@H](CC(C)C)NC(=O)[C@H](CO)NC(=O)[C@H](C)NC(=O)[C@H](C)NC(=O)[C@H](CCCNC(=N)N)NC(=O)[C@H](C)NC(=O)[C@H](CC(C)C)NC(=O)[C@H](CC(C)C)NC(=O)[C@@H](N)CC(C)C)C(=O)O [Peptide 63.0136]

>  <Measured Endpoint>
log10(IC50)

>  <Assay Value>
1.90

$$$$
>  <Molecule>
CC(C)C[C@H](NC(=O)[C@H](Cc1ccccc1)NC(=O)[C@@H](NC(=O)[C@@H](N)C(C)C)C(C)C)C(=O)N[C@H](C(=O)N[C@@H](CC(C)C)C(=O)N[C@@H](CO)C(=O)N[C@H](C(=O)N[C@H](C(=O)N[C@@H](Cc1c[nH]c2ccccc12)C(=O)N[C@H](C(=O)O)C(C)C)[C@@H](C)O)C(C)C)[C@@H](C)O [Peptide 63.0185]

>  <Measured Endpoint>
log10(IC50)

>  <Assay Value>
2.53

$$$$
>  <Molecule>
CC(C)C[C@H](NC(=O)[C@@H](N)Cc1ccccc1)C(=O)N[C@@H](CC(N)=O)C(=O)N[C@@H](CCC(=O)O)C(=O)N[C@@H](CO)C(=O)N[C@@H](Cc1ccc(O)cc1)C(=O)N[C@@H](CCCCN)C(=O)N[C@@H](Cc1c[nH]cn1)C(=O)N[C@@H](CCC(=O)O)C(=O)N[C@@H](CCC(N)=O)C(=O)N[C@H](C(=O)O)C(C)C [Peptide 1419.55]

>  <Measured Endpoint>
log10(IC50)

>  <Assay Value>
2.58

$$$$
>  <Molecule>
CSCC[C@H](NC(=O)[C@H](Cc1ccccc1)NC(=O)[C@H](CCCCN)NC(=O)[C@@H](NC(=O)[C@@H](NC(=O)[C@@H](N)CCCCN)C(C)C)[C@@H](C)O)C(=O)N[C@@H](CC(C)C)C(=O)N[C@@H](CS)C(=O)N[C@H](C(=O)O)C(C)C [Peptide 60.0220]

>  <Measured Endpoint>
log10(IC50)

>  <Assay Value>
2.11

$$$$

The reported numbers originate from patent US20040037843A1.
